# Tested on: T-47D breast
# Protocol notes: NCI tumour cell line growth inhibition, 48 h; in the data active = GI50 below about 0.43 µM; inactive = the rest
Labels: active, inactive

{"columns": ["Compound", "Class"],
 "data": [
  ["Nc1nc(-c2ccc(Cl)cc2)nc2c1sc(=S)n2-c1ccccc1", "inactive"],
  ["N#Cc1c(NC(=O)c2ccccc2F)sc2c1CCCC2", "inactive"],
  ["COc1ccc(C2CC(c3ccc(N(C)C)cc3)=NN2c2ccc(S(N)(=O)=O)cc2)cc1 (stereo unspecified)", "inactive"],
  ["Cc1ccc(-n2c(-c3cc4c([nH]c5ccccc54)c(-c4cccc(O)c4)n3)n[nH]c2=S)cc1", "inactive"],
  ["COCCOCCOCCOCCOC(=O)OC[n+]1ccc(NC(=NCCCCCCOc2ccc(Cl)cc2)NC#N)cc1", "active"],
  ["CC1SC(c2ccc(Cl)cc2)N(CCc2cccs2)C1=O (stereo unspecified)", "inactive"]
]}
